# Experimental Protocol: RAM signaling pathway blockade in yeast – S. cerevisiae, Pdr1DBD-CYC8 efflux-inhibited sensitized strain, primary screen (AID 1298);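 further: 0% = DMSO untreated cells without growth and 100% = 10 µM 1-NA-PP1 full growth; higher means more yeast growth rescued from 5-FOA killing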
# Condition Info: S. cerevisiae cbk1-as DSE1-URA3 strain, 5-FOA growth OD615, 2 d; at 50 µM; active compounds read high
Reported Metric: RAM network inhibition (%)
Answers are plain numbers, in %.

[
  {
    "Compound": "Cc1ccc(C)c(N2CCN(C(=O)CCc3nc4ccccc4[nH]3)CC2)c1",
    "Result Value": -0.77
  },
  {
    "Compound": "Cc1cc(NC(=O)c2ccccc2)sc1C",
    "Result Value": -1.89
  },
  {
    "Compound": "COc1ccc(C2C(C(=O)N3CCOCC3)CCC(=O)N2c2cc(OC)c(OC)c(OC)c2)cc1 (stereo unspecified)",
    "Result Value": 1.3
  },
  {
    "Compound": "Cc1ccc(-c2nc(NC(=O)CSc3nnc4scc(-c5ccccc5)n34)ns2)cc1",
    "Result Value": 5.6
  },
  {
    "Compound": "COc1ccc(C(C#N)(CCC#N)CCC#N)cc1OC",
    "Result Value": 3.89
  },
  {
    "Compound": "COc1ccc2c(c1)c(CCN1C(=O)c3ccccc3C1=O)cn2C(=O)c1ccco1",
    "Result Value": 4.8
  },
  {
    "Compound": "CCOC(=O)c1ccccc1NC(=O)CN(c1cccc(OC)c1)S(C)(=O)=O",
    "Result Value": 4.56
  },
  {
    "Compound": "COc1ccc(OC)c2[nH]c(=O)c(CCNC(C)=O)cc12",
    "Result Value": 1.88
  }
]

I would be grateful if you could provide RAM network inhibition for each of the following entries.
1. Cn1cc(SCC(=O)NCC2CCCO2)c2ccccc21 (stereo unspecified)
2. COc1ccc(-c2nc(CSCC(=O)N3CCC(C(N)=O)CC3)c(C)o2)cc1OC

OUT:
1: 0.31; 2: -0.72

I would be grateful if you could provide RAM network inhibition for each of the following entries.
1. O=c1oc2ccccc2n1Cc1ccccc1Cl
2. CC(Oc1ccccc1)C(=O)OCC(=O)NC(=O)NCc1ccco1 (stereo unspecified)
3. Cc1nc2sc(C(c3cccs3)N3CCN(C(=O)c4ccco4)CC3)c(O)n2n1 (stereo unspecified)
4. Cc1cc(C(F)(F)F)n2ncc(C(=O)O)c2n1
5. C=CCSc1nc2ccccc2c(=O)[nH]1
6. CC1(C)CC(=O)c2sc(NC(=O)c3ccco3)nc2C1
7. O=C(CSc1ccc2nnc(-c3ccc(Cl)cc3)n2n1)N1CCN(c2ccccc2)CC1

OUT:
1: 0.31; 2: 2.68; 3: -1.05; 4: 0.78; 5: 0.79; 6: 2.58; 7: 3.08

I would be grateful if you could provide RAM network inhibition for each of the following entries.
1. COc1ccc(CCNS(=O)(=O)c2ccc3c(c2)oc(=O)n3C)cc1OC
2. CCN1C(=O)c2ccc(-c3nc4ccccc4c(=O)o3)cc2C1=O
3. CC1CCc2nn(CC(=O)NC3CCCC(C)C3C)cc2C1 (stereo unspecified)
4. COc1cccc(N(CC(=O)Nc2cccc(C(C)=O)c2)S(C)(=O)=O)c1
5. CCCC(=O)c1ccc(N2CCOCC2)c(F)c1
6. COc1ccc(-n2cnnc2)cc1
7. Cc1c(NC(=O)c2ccc3c(c2)OCO3)c(=O)n(-c2ccccc2)n1C

OUT:
0.8
3.16
1.94
5.87
0.58
-0.78
2.71
